Data origin: patent US20250026827A1

Biological target: T1, human SIRPα on cells (human, UniProt P78324 31-504)
T1 construct: Whole entry
Assay: flow cytometry;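 also: antibodies tested at 1 µg/ml for 30 min on ice against receptor-expressing cells, detected with a PE-labelled secondary antibody, read as mean fluorescence intensity relative to background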
Criterion: FOB meeting or surpassing 2 fold over background. Met: Criterion met. Not met: Criterion not met.

Solved cases below.
SB-49 (antibody, V domains shown, IgG) VH: QLQLQESGPGLVKPSETLSLTCTVSGGSISSSDYYWGWIRQPPGKGLEWIGSIYYSGSTYYNPSLKSRVTISVDTSKNQFSLKLSSVTAADTAVYYCARGPTGYKDKWRYYYGMDVWGQGTTVTVSS VL: DIQMTQSPSSLSASVGDRVTITCQASQDITNYLNWYQQKPGKAPKLLIYDASNLETGVPSRFSGSGSGTDFTFTISSLQPEDIATYYCQQYFHPPLTFGGGTKVEIK; Criterion met
SB-41 (antibody, V domains shown, IgG) VH: QLQLQESGPGLVKPSETLSLTCTVSGGSISSSSYYWGWIRQPPGKGLEWIGSIYYSGSTYYNPSLKSRVTISVDTSKNQFSLKLSSVTAADTAVYYCARVGQYPIYGMDVWGQGTTVTVSS VL: DIQMTQSPSSLSASVGDRVTITCQASQDITNYLNWYQQKPGKAPKLLIYDASNLETGVPSRFSGSGSGTDFTFTISSLQPEDIATYYCQQADNFPYTFGGGTKVEIK; Criterion met
SB-44 (antibody, V domains shown, IgG) VH: EVQLVESGGGLVQPGGSLRLSCAASGFTVSSNYMSWVRQAPGKGLEWVSVIYSGGDTYYADSVKGRFTISRDNSKNTLYLQMNSLRAEDTAVYYCAREGSSFWSGSAVSYYGMDVWGQGTTVTVSS VL: DIQMTQSPSTLSASVGDRVTITCRASQSIGSWLAWYQQKPGKAPKLLIYKASSLESGVPSRFSGSGSGTEFTLTISSLQPDDFATYYCQEYGSYRTFGGGTKVEIK; Criterion met

Query block: Item SB-8 (antibody, V domains shown, IgG; also called SB-8 (p)) VH: QVQLQESGPGLVKPSETLSLTCAVSGYSISSGYYWGWIRQPPGKGLEWIGSIYHSGSTYYNPSLKSRVTISVDTSKNQFSLKLSSVTAADTAVYYCARGGAMTPAGMDVWGQGTTVTVSS VL: EIVMTQSPGTLSLSPGERATLSCRASQSVSSSYLAWYQQKPGQAPRLLIYGASNRATGIPDRFSGSGSGTDFTLTISRLEPEDFAVYYCQQVYSSPYTFGGGTKVEIK with FOB of 2 fold over background or above?
Result block: Criterion met

Query block: Item SB-37 (antibody, V domains shown, IgG) VH: QVQLVQSGAEVKKPGSSVKVSCKASGGTFSNYAISWVRQAPGQGLEWMGGIIPIFGTANYAQKFQGRVTITADESTSTAYMELSSLRSEDTAVYYCARSRWGASGYYYYMDVWGQGTMVTVSS VL: EIVLTQSPATLSLSPGERATLSCRASQSVSSYLAWYQQKPGQAPRLLIYDASNRATGIPARFSGSGSGTDFTLTISSLEPEDFAVYYCQQRHTYPLTFGGGTKVEIK with FOB of 2 fold over background or above?
Result block: Criterion met

Query block: Item SB-22 (antibody, V domains shown, IgG) VH: EVQLVESGGGLVQPGGSLRLSCAASGFTVSSNYMSWVRQAPGKGLEWVSVIYSDGSTYYADSVKGRFTISRDNSKNTLYLQMNSLRAEDTAVYYCARPTRYGYDRLGMDVWGQGTTVTVSS VL: DIQMTQSPSSVSASVGDRVTITCRASQGISSWLAWYQQKPGKAPKLLIYAASNLQSGVPSRFSGSGSGTDFTLTISSLQPEDFATYYCQQGNSYPITFGGGTKVEIK with FOB of 2 fold over background or above?
Result block: Criterion not met

Query block: Item SB-23 (antibody, V domains shown, IgG) VH: QVQLVQSGAEVKKPGSSVKVSCKASGGTFSSYAISWVRQAPGQGLEWMGGIAPIFGTANYAQKFQGRVTITADESTSTAYMELSSLRSEDTAVYYCARTTYRDYYMDVWGKGTTVTVSS VL: DIQMTQSPSSLSASVGDRVTITCRASQSISSYLNWYQQKPGKAPKLLIYAASSLQSGVPSRFSGSGSGTDFTLTISSLQPEDFATYYCQQAYPYPLTFGGGTKVEIK with FOB of 2 fold over background or above?
Result block: Criterion not met

Query block: Item SB-28 (antibody, V domains shown, IgG) VH: QLQLQESGPGLVKPSETLSLTCTVSGGSISSSSYYWGWIRQPPGKGLEWIGSISYSGSTYYNPSLKSRVTISVDTSKNQFSLKLSSVTAADTAVYYCARDPRDYSSGSSGGGWGYFDLWGRGTLVTVSS VL: EIVLTQSPGTLSLSPGERATLSCRASQSVSSSYLAWYQQKPGQAPRLLIYGASSRATGIPDRFSGSGSGTDFTLTISRLEPEDFAVYYCQQDGNFPLTFGGGTKVEIK with FOB of 2 fold over background or above?
Result block: Criterion met

Query block: Item SB-48 (antibody, V domains shown, IgG) VH: QVQLVESGGGVVQPGRSLRLSCAASGFTFSSYGMHWVRQAPGKGLEWVAVISYDGSNKYYADSVKGRFTISRDNSKNTLYLQMNSLRAEDTAVYYCARDGTIAAAGWPPEYFQHWGQGTLVTVSS VL: DIQMTQSPSSVSASVGDRVTITCRASQGIDSWLAWYQQKPGKAPKLLIYAASSLQSGVPSRFSGSGSGTDFTLTISSLQPEDFATYYCQQASNFPITFGGGTKVEIK with FOB of 2 fold over background or above?
Result block: Criterion met

Query block: Item SB-25 (antibody, V domains shown, IgG) VH: QVQLVQSGAEVKKPGSSVKVSCKASGGTFSSLAISWVRQAPGQGLEWMGGIIPIFGTANYAQKFQGRVTITADESTSTAYMELSSLRSEDTAVYYCARSGGDYSGYDYASGMDVWGQGTTVTVSS VL: DIQMTQSPSSVSASVGDRVTITCRASQGISSWLAWYQQKPGKAPKLLIYAASSLQSGVPSRFSGSGSGTDFTLTISSLQPEDFATYYCQQVNSFPWTFGGGTKVEIK with FOB of 2 fold over background or above?
Result block: Criterion met
